# measurement.target: hGLP-1R (Homo sapiens, UniProt P43220)
# measurement.protocol: cell-based or functional assay
*1 amine or outer side, *2 acyl side, *3 side chain or, on linkers, in order; H or OH if unused. Where no end group is shown, it is not given here. Side-chain parts run from the residue outwards. [ ]: non-standard residue; d: D form. The star is where a group is joined. Decanoyl(10-(4-HOOC-PhO)) = O=C(O)c1ccc(OCCCCCCCCCC(=O)*)cc1; αMePhe(2-F) = C[C@](N)(Cc1ccccc1F)C(=O)O; γGlu = O=C(O)[C@H](CCC(=O)[*:2])N[*:1]; αMeY = C[C@](N)(Cc1ccc(O)cc1)C(=O)O; αMeL = CC(C)C[C@](C)(N)C(=O)O; Orn = NCCC[C@H](N)C(=O)O; AEEA = NCCOCCOCC(=O)O; Aib = CC(C)(N)C(=O)O
# if measured cAMP EC50 < 0.1 nM: true (1)  # else: false (0)

# binder, class.assignment
measured = [
    ("Y[Aib]EGT[αMePhe(2-F)]TSDV[Aib]I[αMeL]LD[Orn]K([AEEA-AEEA-γGlu-Decanoyl(10-(4-HOOC-PhO))])AQ[Aib]K([AEEA-AEEA-γGlu-Decanoyl(10-(4-HOOC-PhO))])FI[dE][αMeY]LI[Orn]GGPSSGAPPPS-NH2 [Example 410]", "false (0)"),
    ("YXEGTXTSDXXIXLDXKAQXEFIXXLIEGGPSSGAPPPSK (Y-Aib-EGT-αMeF(2F)-TSD-4Pal-Aib-I-αMeL-LD-Orn-K((2-[2-(2-Amino-ethoxy)-ethoxy]-acetyl)3-(γ-Glu)-CO-(CH2)10-CH3)AQ-Aib-EFI-(D-Glu)-αMeY-LIEGGPSSGAPPPSK((2-[2-(2-Amino-ethoxy)-ethoxy]-acetyl)3-(γ-Glu)-CO-(CH2)10-CH3)-NH2) [Example 424]", "true (1)"),
    ("Y[Aib]EGT[αMePhe(2-F)]TSDV[Aib]I[αMeL]LD[Orn]IAQ[Aib]K([AEEA-AEEA-γGlu-Decanoyl(10-(4-HOOC-PhO))])FI[dE][αMeY]LIK([AEEA-AEEA-γGlu-Decanoyl(10-(4-HOOC-PhO))])GGPSSGAPPPS-NH2 [Example 330]", "false (0)"),
    ("YXEGTXTSDXXIXLDXKAQXKFIXXLIEGGPSSGAPPPS (Y-Aib-EGT-αMeF(2F)-TSD-4Pal-Aib-I-αMeL-LD-Orn-K(PEG4-(γ-Glu)-CO-(CH2)12-CO2H)AQ-Aib-K(PEG4-(γ-Glu)-CO-(CH2)12-CO2H)FI-(D-Glu)-αMeY-LIEGGPSSGAPPPS-NH2) [Example 405]", "false (0)"),
]

## Task A record lists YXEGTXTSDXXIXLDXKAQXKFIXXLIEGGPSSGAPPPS (Y-Aib-EGT-αMeF(2F)-TSD-4Pal-Aib-I-αMeL-LD-Orn-K((2-[2-(2-Amino-ethoxy)-ethoxy]-acetyl)2-(γ-Glu)-CO-(CH2)10-CH3)AQ-Aib-K((2-[2-(2-Amino-ethoxy)-ethoxy]-acetyl)2-(γ-Glu)-CO-(CH2)10-CH3)FI-(D-Glu)-αMeY-LIEGGPSSGAPPPS-NH2) [Example 322] . Is its cAMP EC50 below 0.1 nM?
## Result false (0)

## Task A record lists YXEGTXTSDXXIXLDXKAQXEFIXXLIKGGPSSGAPPPS (Y-Aib-EGT-αMeF(2F)-TSD-4Pal-Aib-I-αMeL-LD-Orn-K((2-[2-(2-Amino-ethoxy)-ethoxy]-acetyl)-(γ-Glu)-CO-(CH2)12-CO2H)AQ-Aib-EFI-(D-Glu)-αMeY-LIK((2-[2-(2-Amino-ethoxy)-ethoxy]-acetyl)-(γ-Glu)-CO-(CH2)12-CO2H)GGPSSGAPPPS-NH2) [Example 337] . Is its cAMP EC50 below 0.1 nM?
## Result false (0)

## Task A record lists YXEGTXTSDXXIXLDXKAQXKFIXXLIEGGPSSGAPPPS (Y-Aib-EGT-αMeF(2F)-TSD-4Pal-Aib-I-αMeL-LD-Orn-K((2-[2-(2-Amino-ethoxy)-ethoxy]-acetyl)2-CO-(CH2)12-CO2H)AQ-Aib-K((2-[2-(2-Amino-ethoxy)-ethoxy]-acetyl)2-CO-(CH2)12-CO2H)FI-(D-Glu)-αMeY-LIEGGPSSGAPPPS-NH2) [Example 384] . Is its cAMP EC50 below 0.1 nM?
## Result false (0)

## Task A record lists YXEGTXTSDXXIXLDXKAQXKFIXXLIXGGPSSGAPPPS (Y-Aib-EGT-αMeF(2F)-TSD-4Pal-Aib-I-αMeL-LD-Orn-K((2-[2-(2-Amino-ethoxy)-ethoxy]-acetyl)2-(γ-Glu)-CO-(CH2)12-CO2H)AQ-Aib-K((2-[2-(2-Amino-ethoxy)-ethoxy]-acetyl)2-(γ-Glu)-CO-(CH2)12-CO2H)FI-(D-Glu)-αMeY-LI-Orn-GGPSSGAPPPS-NH2) [Example 406] . Is its cAMP EC50 below 0.1 nM?
## Result false (0)

## Task A record lists YXEGTXTSDYXIXLDXKAQXEFIXXLIEGGPSSGAPPPSK (Y-Aib-EGT-αMeF(2F)-TSDY-Aib-I-αMeL-LD-Orn-K((2-[2-(2-Amino-ethoxy)-ethoxy]-acetyl)2-(γ-Glu)-CO-(CH2)10-CH3)AQ-Aib-EFI-(D-Glu)-αMeY-LIEGGPSSGAPPPSK((2-[2-(2-Amino-ethoxy)-ethoxy]-acetyl)2-(γ-Glu)-CO-(CH2)10-CH3)-NH2) [Example 302] . Is its cAMP EC50 below 0.1 nM?
## Result true (1)

Origin of the recorded values: patent US20230265151A1
